Biological target: (Homo sapiens, UniProt P43220)
Sequence (P43220 24-463): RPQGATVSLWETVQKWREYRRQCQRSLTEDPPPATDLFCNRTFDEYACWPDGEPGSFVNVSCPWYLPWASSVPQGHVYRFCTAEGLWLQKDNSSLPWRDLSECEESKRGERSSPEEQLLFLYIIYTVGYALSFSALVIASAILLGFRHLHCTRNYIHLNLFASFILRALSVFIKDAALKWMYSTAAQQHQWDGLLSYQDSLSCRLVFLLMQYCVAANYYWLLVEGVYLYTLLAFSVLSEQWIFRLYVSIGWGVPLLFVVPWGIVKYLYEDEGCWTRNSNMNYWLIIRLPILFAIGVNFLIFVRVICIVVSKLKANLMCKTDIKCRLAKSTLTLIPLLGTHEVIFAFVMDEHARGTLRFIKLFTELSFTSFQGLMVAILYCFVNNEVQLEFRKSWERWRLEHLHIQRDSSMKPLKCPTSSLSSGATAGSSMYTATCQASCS
Test: h-GLP-1 activity assay (cAMP HTRF, HEK293 cells with stable expression of human GLP-1)
Details: relative EC50, 10 nM human GLP-1 set as 100% response, 30 min at 37° C.
pEC50: −log10 of the molar value.
Listed next: entries and their corresponding pEC50.

The cases that follow already have their pEC50 on record.
>>> experimental_result("Cc1cc(-n2nc3c(c2-n2ccn(-c4ccc5c(cnn5C)c4F)c2=O)[C@H](C)N(C(=O)c2cc4cc(C5CCOC(C)(C)C5)ccc4n2C2(c4nc(O)ns4)CC2)CC3)cc(C)c1F (mixture of isomers)")
"> 7.70"
>>> experimental_result("C[C@H]1c2c(nn(-c3ccc(F)c(OC(F)(F)F)c3)c2-n2ccn(-c3ccc4c(cnn4C)c3F)c2=O)CCN1C(=O)c1cc2cc([C@@H]3CCOC(C)(C)C3)ccn2c1C1(c2noc(=O)[nH]2)CC1 (single isomer, unassigned)")
"> 7.70"
>>> experimental_result("C[C@H]1c2c(nn(-c3ccc(F)c(C4CC4)c3)c2-n2ccn(-c3ccc4c(cnn4C)c3F)c2=O)CCN1C(=O)c1cn2cc([C@@H]3CCOC(C)(C)C3)ccc2c1C1(c2noc(=O)[nH]2)CC1 (single isomer, unassigned)")
"> 7.70"

Exam item: If you can, please state the reported pEC50 value of Cc1cc(-n2nc3c(c2-n2ccn(-c4ccc5c(cnn5C)c4F)c2=O)[C@H](C)N(C(=O)c2cc4cc([C@@H]5CCOC(C)(C)C5)ccc4n2Cc2cnc(O)s2)CC3)cc(C)c1F (single isomer, unassigned) .
Marked response: 7.00 to 7.70

###

Experiment: Pharmacokinetics after oral gavage in fasted SD rats
Format: in vivo
Details: rat, 5 mg/kg, plasma
quantity_measured: AUC (ng·h/mL)

Below: 3 molecules and their reported AUC.
>>> experimental_result("C[C@H]1c2c(nn(-c3ccc(F)c(C4CC4)c3)c2-n2ccn(-c3ccc4c(cnn4C)c3F)c2=O)CCN1C(=O)c1cn2nc([C@@H]3CCOC(C)(C)C3)ccc2c1C1(c2noc(=O)[nH]2)CC1 (single isomer, unassigned)")
3340
>>> experimental_result("Cc1cc(-n2nc3c(c2-n2ccn(-c4ccc5c(cnn5C)c4F)c2=O)[C@H](C)N(C(=O)c2cn4cc([C@@H]5CCOC(C)(C)C5)ccc4c2C2(c4noc(=O)[nH]4)CC2)CC3)cc(C)c1F (single isomer, unassigned)")
3000
>>> experimental_result("C[C@H]1c2c(nn(-c3ccc(F)c(C4CC4)c3)c2-n2ccn(-c3ccc4c(cnn4C)c3F)c2=O)CCN1C(=O)c1cn2cc([C@@H]3CCOC(C)(C)C3)ccc2c1C1(c2noc(=O)[nH]2)CC1 (single isomer, unassigned)")
5320

1 = C[C@H]1c2c(nn(-c3ccc(F)c(C4CC4)c3)c2-n2ccn(-c3ccc4c(cnn4C)c3F)c2=O)CCN1C(=O)c1cc2cc([C@@H]3CCOC(C)(C)C3)ccn2c1C1(c2noc(=O)[nH]2)CC1 (single isomer, unassigned)
2 = C[C@H]1c2c(nn(-c3ccc(F)c(C4CC4)c3)c2-n2ccn(-c3ccc4c(cnn4C)c3F)c2=O)CCN1C(=O)c1cn2cc([C@H]3CCOC(C)(C)C3)cc(F)c2c1C1(c2noc(=O)[nH]2)CC1 (single isomer, unassigned)
Exam item: Please compare: 1 and 2 . Report which one has the smaller AUC value. Give the label under which the chosen entry appears.
Marked response: 2

###

Target: UniProt:P43220
Experiment: h-GLP-1 activity assay (cAMP HTRF, HEK293 cells with stable expression of human GLP-1)
Conditions: relative EC50, 10 nM human GLP-1 set as 100% response, 30 min at 37° C.
pEC50: −log10 of the molar value.
This listing pairs compounds with measured pEC50.

Illustrative cases are given below, each with its answer.
>>> experimental_result("C[C@H]1c2c(-n3ccn(-c4ccc5c(cnn5C)c4F)c3=O)c(-c3ccc(F)cc3)nn2CCN1C(=O)c1cc2cc([C@H]3CCOC(C)(C)C3)ccc2n1C1(c2noc(=O)[nH]2)CC1 (single isomer, unassigned)")
"< 7.00"
>>> experimental_result("COCc1ccc(-n2ccn(-c3c4c(nn3-c3cc(C)c(F)c(C)c3)CCN(C(=O)c3cc5cc(C6CCOCC6)ccc5n3-c3ccccc3C(=O)O)[C@H]4C)c2=O)cc1")
"< 7.00"
>>> experimental_result("C[C@H]1c2c(nn(-c3ccc(F)c(C4CC4)c3)c2-n2ccn(-c3ccc4c(cnn4C)c3F)c2=O)CCN1C(=O)c1cn2cc([C@H]3CCOC(C)(C)C3)cc(F)c2c1C1(c2noc(=O)[nH]2)CC1 (single isomer, unassigned)")
"> 7.70"
>>> experimental_result("Cc1cc(-c2ccc3c(c2)cc(C(=O)N2CCn4nc(-c5ccc(F)cc5)c(-n5ccn(-c6ccc7c(cnn7C)c6F)c5=O)c4C2)n3Cc2noc(=O)[nH]2)ccn1")
"> 7.70"
>>> experimental_result("Cc1cc(-c2ccc3c(c2)cc(C(=O)N2CCn4nc(-c5ccc(F)cc5)c(-n5ccn(-c6ccc7c(cnn7C)c6F)c5=O)c4[C@@H]2C)n3C2(c3noc(=O)[nH]3)CC2)ccn1 (single isomer, unassigned)")
"> 7.70"

Exam item: Which measured pEC50 value corresponds to C[C@H]1c2c(nn(-c3ccc(C(F)(F)F)cc3)c2-n2ccn(-c3ccc4c(cnn4C)c3F)c2=O)CCN1C(=O)c1cn2cc([C@@H]3CCOC(C)(C)C3)ccc2c1C1(c2noc(=O)[nH]2)CC1 (single isomer, unassigned) ?
Marked response: > 7.70

Exam item: What pEC50 value was documented for this compound, C[C@H](c1ccc(F)cc1)n1nc2c(c1-n1ccn(-c3ccc4c(cnn4C)c3F)c1=O)[C@H](C)N(C(=O)c1cc3cc([C@H]4CCOC(C)(C)C4)ccc3n1C1(c3noc(=O)[nH]3)CC1)CC2 (single isomer, unassigned) ?
Marked response: < 7.00

Exam item: # get_value(readout='pEC50', item= COc1ccc(-c2nn3c(c2-n2ccn(-c4ccc5c(cnn5C)c4F)c2=O)C(C)N(C(=O)c2cc4cc([C@@H]5CCOC(C)(C)C5)ccc4n2C2(c4noc(=O)[nH]4)CC2)CC3)cc1 (single isomer, unassigned) )
Marked response: 7.00 to 7.70

Exam item: Quick check: pEC50 of Cc1cc(-n2nc3c(c2-n2ccn(-c4ccc5c(cnn5C)c4F)c2=O)[C@H](C)N(C(=O)c2nn4cc([C@H]5CCOC(C)(C)C5)ccc4c2C2(c4noc(=O)[nH]4)CC2)CC3)cc(C)c1F (single isomer, unassigned) ?
Marked response: 7.00 to 7.70

###

// values below are reported EC50
Target: (Homo sapiens)
Experiment: h-GLP-1 activity assay (cAMP HTRF, HEK293 cells with stable expression of human GLP-1)
Conditions: relative EC50, 10 nM human GLP-1 set as 100% response, 30 min at 37° C.

>>> experimental_result("C[C@H]1c2c(nn(-c3ccc(F)c(C4CC4)c3)c2-n2ccn(-c3ccc4c(cnn4C)c3F)c2=O)CCN1C(=O)c1nn2cc(C3CCOC(C)(C)C3)cnc2c1C1(c2noc(=O)[nH]2)CC1 (mixture of isomers)")
"< 20 nM"
>>> experimental_result("Cc1cc(-n2nc3c(c2-n2ccn(-c4ccc5c(cnn5C)c4F)c2=O)[C@H](C)N(C(=O)c2cn4cc([C@H]5CCOC(C)(C)C5)ccc4c2[C@@]2(c4noc(=O)[nH]4)C[C@@H]2C)CC3)cc(C)c1F (single isomer, unassigned)")
"20 to 100 nM"
>>> experimental_result("Cc1cc(-n2nc3c(c2-n2ccn(-c4ccc5c(cnn5C)c4F)c2=O)[C@H](C)N(C(=O)c2cn4cc([C@H]5CCOC(C)(C)C5)ccc4c2Cc2noc(=O)[nH]2)CC3)cc(C)c1F (single isomer, unassigned)")
"20 to 100 nM"

Kindly review the next molecule as well.
Exam item: Report EC50 for C[C@H]1c2c(nn(-c3ccc(F)c(F)c3)c2-n2ccn(-c3ccc4c(cnn4C)c3F)c2=O)CCN1C(=O)c1cn2cc([C@@H]3CCOC(C)(C)C3)ccc2c1C1(c2noc(=O)[nH]2)CC1 (single isomer, unassigned) please.
Marked response: < 20 nM

###

Target: (Homo sapiens)
Test: h-GLP-1 activity assay (cAMP HTRF, HEK293 cells with stable expression of human GLP-1)
Type: cell-based
Settings: relative EC50, 10 nM human GLP-1 set as 100% response, 30 min at 37° C.
quantity_measured: EC50

>>> experimental_result("C[C@@H]1c2c(-n3ccn(-c4ccc5c(cnn5C)c4F)c3=O)c(-c3ccc(F)c(Cl)c3)nn2CCN1C(=O)c1cc2cc([C@@H]3CCOC(C)(C)C3)ccc2n1C1(c2noc(=O)[nH]2)CC1 (single isomer, unassigned)")
"< 20 nM"
>>> experimental_result("C[C@@H]1c2c(-n3ccn(-c4ccc5c(cnn5C)c4F)c3=O)c(-c3cc(Cl)c(F)c(Cl)c3)nn2CCN1C(=O)c1cc2cc([C@@H]3CCOC(C)(C)C3)ccc2n1C1(c2noc(=O)[nH]2)CC1 (single isomer, unassigned)")
"< 20 nM"
>>> experimental_result("C[C@H]1c2c(nn(-c3ccc(F)c(C4CC4)c3)c2-n2ccn(-c3ccc4c(cnn4C)c3F)c2=O)CCN1C(=O)c1cn2cc([C@@H]3CCOC(C)(C)C3)cc(F)c2c1C1(c2noc(=O)[nH]2)CC1 (single isomer, unassigned)")
"< 20 nM"
>>> experimental_result("Cc1cc(-n2nc3c(c2-n2ccn(-c4ccc5c(cnn5C)c4F)c2=O)[C@H](C)N(C(=O)c2cc4cc(C5CCOCC5)ccc4n2-c2cccc(C(=O)O)c2)CC3)cc(C)c1F")
"< 20 nM"
>>> experimental_result("COCC12CCC(n3ccn(-c4c(-c5ccc(F)cc5)nn5c4[C@H](C)N(C(=O)c4cc6cc([C@@H]7CCOC(C)(C)C7)ccc6n4C4(c6noc(=O)[nH]6)CC4)CC5)c3=O)(CC1)CC2 (single isomer, unassigned)")
"20 to 100 nM"

Exam item: So what does the record say about EC50 for C[C@H]1c2c(nn(-c3ccc(F)c(C4CC4)c3)c2-n2ccn(-c3ccc4c(cnn4C)c3F)c2=O)CCN1C(=O)c1c(C2(c3noc(=O)[nH]3)CC2)c2ccc([C@@H]3CCOC(C)(C)C3)cn2c1Cl (single isomer, unassigned) ?
Marked response: 20 to 100 nM

Exam item: For the compound shown here, C[C@H]1c2c(nn(-c3ccc(F)c(C(F)(F)F)c3)c2-n2ccn(-c3ccc4c(cnn4C)c3F)c2=O)CCN1C(=O)c1cc2cc([C@@H]3CCOC(C)(C)C3)ccn2c1C1(c2noc(=O)[nH]2)CC1 (single isomer, unassigned) , give the reported EC50.
Marked response: < 20 nM

All figures here come from patent US12037339B2.
